B1: VTI1B (parent)
chain: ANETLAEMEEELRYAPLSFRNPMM

- Variants of: B1
- Assay Text: protein stability index of a GFP-peptide fusion (GPS, HEK-293T) (PSI 1-6); higher = more stable;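 also: lentivirally expressed fusions sorted by FACS into six bins by GFP to DsRed ratio, PSI derived from sequencing read proportions per bin multiplied by bin number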
- Condition Label: c terminus: a fixed tail appended
Param threshold (3) applies to protein stability index; output Criterion met when value >= threshold, Criterion not met when value < threshold.

Illustrative cases are given below, each with its answer.
S18C = Criterion not met
E3A = Criterion not met
M8I = Criterion not met
Y14Q = Criterion not met
N21Q = Criterion met

Can N21D be said to have protein stability index at or above 3?
Criterion met

Thanks! And E9H ?
Criterion met

What about E7Y ?
Criterion not met

Check R13P too.
Criterion not met

// next record E10S
Criterion not met

Would you kindly repeat that for A6K ?
Criterion not met

Do the same for R20K please
Criterion met
